All figures here come from the supplement of paper PMC10567573.

# protein stability index values compiled below
B1: SPSB4 (parent)
chain: LDMDEGTLSFIVDGQYLGVAFRGL

# Variants of: B1
# Protocol Summary: protein stability index of a GFP-peptide fusion (GPS, HEK-293T) (PSI 1-6); higher = more stable;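 also: lentivirally expressed fusions sorted by FACS into six bins by GFP to DsRed ratio, PSI derived from sequencing read proportions per bin multiplied by bin number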
# Run Conditions: c terminus: a fixed tail appended

# Mutation, protein stability index
measured = [
    ("F10Q", 2),
    ("E5F", 2.59),
    ("D4R", 2.39),
    ("M3F", 2.33),
    ("Q15N", 3.31),
    ("Y16C", 2.12),
    ("E5N", 3.71),
    ("L24R", 2.11),
    ("G23D", 1.84),
    ("E5D", 2.77),
    ("D2L", 2.87),
    ("M3N", 1.52),
    ("F10D", 2.79),
    ("D2K", 1.64),
    ("G6Q", 3.01),
    ("F10T", 2.44),
    ("V12Q", 1.58),
    ("A20W", 2.61),
    ("A20L", 2.51),
    ("F10A", 1.84),
    ("Q15K", 2.5),
    ("L24Q", 2.6),
]
